system: Plasmodium berghei; assay: Screen against P. berghei liver stage (PbLuc), transformed with Luciferase, at 10uM; assay type: functional, HepG2; details: tested at 10 uM
Out of some 69,000 compounds screened, about 8,600 (12%) showed an effect of 50% or more. Shown is part of a subset that was picked to be rich in strong results.
// reported INHIBITION for each item listed

Previously resolved entries follow.
| Molecule | INHIBITION |
| --- | --- |
| Cc1cccc(CN2C[C@@H]3OCCN(C)[C@@H]3C2)n1 | -22.7% |
| Cc1ccc(N2CCO[C@@H]3CN(Cc4cccc(C)n4)CC[C@@H]3C2)nn1 | 52.3% |
| CCn1ccnc1CN1CCC(N(Cc2ncc(C)o2)C(C)=O)C1 (stereo unspecified) | 48.2% |

[in] Please give the documented INHIBITION of CCn1ccnc1CN1CCCN(C(=O)c2cc[nH]n2)CC1
[out] -18.45%

[in] Please give the documented INHIBITION of CN1CCCC1(CCCc1cccnc1)C(=O)NCc1nccn1C (stereo unspecified)
[out] 15.5%

[in] Please give the documented INHIBITION of Cc1cc(C)n(CC2CN(Cc3cc(C)on3)CCO2)n1 (stereo unspecified)
[out] 16%
